Value source: PubChem BioAssay

TEST DETAILS: probe aXIP binding to arrayed compounds – biochemical, NeuroSMM set, 635/667 nm fluorescence, primary screen (AID 1119);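 further: probe is the protein aXip251-270 applied at 1 µg/mL to compound-printed slides; binding of probe to printed compounds measured as 667 nm fluorescence plus signal to noise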
CONDITION SET: small-molecule microarray, higher = more signal, called active from +8 up or from −8 down
Calls of active or inactive are those of the source.
MEASURED PARAMETER: composite Z-score

COC(=O)[C@@]1(Cc2ccc(F)cc2)[C@H]2c3cc(C(=O)N4CCCC4)n(Cc4ccc(C)c(F)c4F)c3C[C@H]2CN1C(=O)c1ccccc1; -0.474 (inactive)

Provide measured composite Z-score value, entry: COC(=O)C1=CC(CCCO)=CC(c2cccs2)N(C)C=C1C(=O)OC (stereo not given) 0.156 (inactive)

Please give the documented composite Z-score of C=C[C@@H](CO)N(Cc1ccc(OC)cc1)S(=O)(=O)c1ccc(Br)cc1 -0.0461 (inactive)

Read off the recorded composite Z-score for COc1ccc([Si](C)(C)[C@H]2[C@H](CC(=O)N(CCO)Cc3ccccc3)O[C@@]3(C(=O)N(C)c4c(Br)cc(C)cc43)[C@@H]2C)cc1 -0.324 (inactive)

State, in one line, measured composite Z-score of CCCCC(CC)C(O)C1C=CC2C(=O)N(C)C(=O)C2N1Nc1ccccc1 (stereo not given) 0.576 (inactive)

Give the measured composite Z-score for CCCCC[C@H]1OC[C@@]23C=C(Br)[C@@H](CC12)[C@@]1(CO1)C3=O (stereo not given in full) 0.39 (inactive)

Could you please provide reported composite Z-score for O=C(C1N=C(c2ccc(OCCCO)cc2)N(c2ccccc2)O1)N1CCCCC1 (stereo not given) ? Thanks! 1.91 (inactive)

Identify composite Z-score associated with the compound CC(C)c1ccc(NN2C(C(O)c3ccc(C#N)cc3)C=CC3C(=O)N(c4ccccc4)C(=O)C32)cc1 (stereo not given) 0.238 (inactive)

For the compound CCCC=C(CCC)[C@@H](NP(=O)(c1ccccc1)c1ccccc1)c1ccc(-c2ccccc2)cc1 , report composite Z-score. 0.439 (inactive)

Tell me composite Z-score reported for CN(C)CCCCCCNC(=O)[C@@H]1C[C@@H]2C(=O)N3CCC[C@H]3C(=O)N2[C@@H]1c1cccc(OCCO)c1 0.759 (inactive)

====

STUDY SYSTEM: Torsin-1A-interacting protein 2 (Homo sapiens) (UniProt Q8NFQ8)
Sequence (Q8NFQ8 whole entry, looked up): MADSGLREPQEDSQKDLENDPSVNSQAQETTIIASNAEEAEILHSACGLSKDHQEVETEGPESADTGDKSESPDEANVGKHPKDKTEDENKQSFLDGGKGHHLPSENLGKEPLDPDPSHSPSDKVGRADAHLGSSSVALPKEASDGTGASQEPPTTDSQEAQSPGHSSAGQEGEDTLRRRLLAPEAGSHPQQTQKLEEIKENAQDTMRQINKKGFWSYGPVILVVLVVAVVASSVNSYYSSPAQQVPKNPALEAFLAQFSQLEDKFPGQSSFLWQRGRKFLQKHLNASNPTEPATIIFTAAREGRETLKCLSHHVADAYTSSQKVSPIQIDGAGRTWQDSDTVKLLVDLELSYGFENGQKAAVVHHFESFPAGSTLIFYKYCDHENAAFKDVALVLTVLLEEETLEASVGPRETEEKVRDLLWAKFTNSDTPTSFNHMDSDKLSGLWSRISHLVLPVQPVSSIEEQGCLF
TEST DETAILS: small molecules binding lysate-expressed LULL1 – cell lysate, human LULL1 lysate, 635/667 nm fluorescence, primary screen (AID 1092);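 further: probe is lysate of COS7 cells overexpressing human LULL1; score merges per-feature 667 nm fluorescence with signal-to-noise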
CONDITION SET: small-molecule microarray, hLULL1 lysate binding, 635 nm fluorescence; higher = more signal
MEASURED PARAMETER: composite z-score
Answer with the value's number alone.

NCCCCCCNC(=O)[C@@H]1C[C@@H]2C(=O)N[C@@H](CCCCN)C(=O)N2[C@@H]1c1ccc(O)cc1; 2.47

Query composite z-score for CCCCC(CC)C(O)C1C=CC2C(=O)N(C)C(=O)C2N1Nc1ccccc1 (centres undefined) 2.87

Please indicate composite z-score recorded for CCCN1C(=O)[C@@]2(Cc3ccccc31)N=C(c1ccc(OCCCO)cc1)O[C@H]2c1ccccc1 2.58

Return composite z-score (reported value) for this compound: Cc1ccc(S[C@]2(C(=O)NC(C)C)CC(=O)N(Cc3cc(C(F)(F)F)cc(C(F)(F)F)c3)[C@@H]2c2ccc(CO)cc2)cc1 0.47

====

Measured z-score of individual entries
TEST DETAILS: inhibition of PAO1 biofilm formation – strain PAO1, LB-PBS medium, absorbance 600 nm, primary screen (AID 1176); further: test concentration not given here
CONDITION SET: P. aeruginosa PAO1 growth/biofilm, A600, 12 h; higher = more signal
Active and inactive are the calls of the source. The rule behind the calls is not given here.

Here's what some known entries look like.
O=C(NCc1ccc(F)cc1)[C@H]1C[C@H]2C(=O)NCC(=O)N2[C@H]1c1ccc(O)cc1; -0.0185 (inactive)
COc1ccc(C(=O)Nc2ccc(CN3C(=O)[C@]4(O[C@H](CC(=O)N5Cc6ccccc6C[C@H]5CO)[C@@H]([Si](C)(C)c5ccc(OC)cc5)[C@@H]4C)c4ccccc43)cc2)cc1; 0.0002 (inactive)
CC(=O)NCCCC[C@@H]1NC(=O)[C@@H]2C[C@H](C(=O)NCCCCCN)[C@H](c3ccc(O)cc3)N2C1=O; 0.0094 (inactive)

Return the recorded z-score value; entry: COCC(=C=CC[C@H](O)c1ccccc1OCCO)C[C@H](O)c1ccccn1 0.354 (inactive)

Supply z-score value. Item: COc1cc2c(cc1O)C(C1CC1)N(C)CC2 (stereo not given) -0.572 (inactive)

====

// reported composite z-score for each item listed
TEST DETAILS: probe aNOTCH3 binding on compound microarray – biochemical, small-molecule microarray, 635/667 nm fluorescence, primary screen (AID 1120);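 further: probe is a biotin-tagged antibody raised against NOTCH3 rather than NOTCH3 protein; score merges spot fluorescence near 667 nm with spot signal to noise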
CONDITION SET: higher = more signal
Form field (numeric): enter value without unit.

// solved cases for composite z-score follow
C[N+](C)(C)CCCC[C@@H]1NC(=O)[C@@H]2C[C@H](C(=O)NCCCCCCN)[C@H](c3cccc(OCCO)c3)N2C1=O; 0.39
CC(C)[Si](C#C[Si](C(C)C)(C(C)C)C(C)C)(O[C@H](c1ccccc1)c1cn(Cc2ccccc2)nn1)C(C)C; 0.143
O=C1OCCC=C[C@H]2OC34C=CCN(Cn5nnc6ccccc65)C(=O)[C@H]3N(CCCO)C(=O)[C@@H]4C12 (stereo not given in full); -0.353

Please list composite z-score recorded for the compound COCC(=C=CC[C@H](O)c1ccccc1OCCO)C[C@H](O)c1ccccn1 -0.116

Report composite z-score for C=C(C(=O)CC[C@H](OC(=O)c1ccccc1-c1ccccc1C(=O)O)c1cccc(OCCO)c1)C(C)C -0.185

Identify measured composite z-score associated with CCCC=C(CCC)[C@@H](NS(=O)(=O)c1ccc(C(F)(F)F)cc1)c1ccccc1 0.149

Please report composite z-score for the following compound: CCOC(=O)C1=C[C@@H](C(C)C)N(S(=O)(=O)c2ccc(C)cc2)[C@H]1c1ccc(C(F)(F)F)cc1 0.256

Indicate its recorded composite z-score; the compound in question is C=CCC(OC(C)=O)[C@@H]1[C@@H](N(Cc2cc3ccccc3o2)C(=O)Cc2ccc(F)cc2)c2cc(OCCCO)ccc2N1C(=O)Cc1ccc2ccccc2c1 (stereo not given in full) -0.0311

Hello, please tell me recorded composite z-score for this one: Cc1ccc(F)cc1S(=O)(=O)N[C@@H]1CCN(Cc2ccc(Br)cc2)C1 0.122

Give the value of composite z-score reported for the following: CCOC(=O)C[C@H]1[C@H](OC(=O)c2ccc(C(=O)c3ccccc3)cc2)[C@@H](NC(=O)CC(C)C)c2cc(OCCCO)ccc2N1C(=O)c1ccccc1 0.104

====

System: Sam68 (KHDRBS1)
TEST DETAILS: compounds binding KHDRBS1 protein – biochemical, small-molecule microarray, 635 nm fluorescence, primary screen (AID 1125);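 further: score merges 667 nm channel intensity with signal to noise over triplicate slides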
CONDITION SET: higher = more signal
Respond with yes (1) for composite z-score values of 0.4 and above, no (0) for values below.

Would you please look over these solved cases?
O=C1OCCC/C=C\[C@H]2OC34C=CCN(c5ccc6ccccc6c5)C(=O)[C@H]3N(CCO)C(=O)[C@@H]4C12 (stereo not given in full); no (0)
COCCCNC(=O)[C@@]1(Sc2ccc(C)cc2)CC(=O)N(C2Cc3ccccc3C2)[C@@H]1c1ccc(CO)cc1; no (0)
CCCNC(=O)[C@@H]1c2ccccc2C(=O)N(Cc2ccc(OC(F)(F)F)cc2)[C@H]1c1ccc(CO)cc1; yes (1)
CN(C)C(=O)[C@]1(CCC(=O)OC(C)(C)C)N=C(c2ccc(OCCCO)cc2)O[C@@H]1c1ccccc1CN=[N+]=[N-]; yes (1)
CCCC[C@@H](O)C1=C(COC)C[C@H]2C(=O)N(C)C(=O)[C@H]2[C@H]1CO; no (0)

Does the reported composite z-score for CCOC(=O)C[C@H]1[C@H](OC(=O)c2cc3ccccc3oc2=O)[C@@H](NC(=O)c2ccc3ccccc3n2)c2cc(OCCCO)ccc2N1C(=O)Cc1ccc(OC)cc1 fall at or above the 0.4 mark? yes (1)

Say whether COCCOC(=O)N1C(=O)[C@@]2(c3cc(C#CCC(C(=O)OC)C(=O)OC)ccc31)[C@H](c1ccc(OCCO)cc1)N1[C@H](c3ccccc3)[C@H](c3ccccc3)OC(=O)[C@H]1[C@@H]2C(=O)N1CCc2cc(OC)c(OC)cc2C1 shows composite z-score of 0.4 or more. yes (1)

Determine whether measured composite z-score meets or exceeds 0.4 for CCCC1(C(=O)OC)C=C2C(=C(C)C(=O)C2C)CN1 (stereo not given) no (0)

====

STUDY SYSTEM: Alpha-bungarotoxin (Bungarus multicinctus) (UniProt P60615)
Sequence (P60615 whole entry, looked up): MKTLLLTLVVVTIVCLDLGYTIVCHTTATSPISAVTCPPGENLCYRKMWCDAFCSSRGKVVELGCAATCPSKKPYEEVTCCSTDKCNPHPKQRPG
TEST DETAILS: compounds binding labelled alpha-BTX control protein – biochemical, small-molecule microarray, Alexa647 label, 635/667 nm fluorescence, artefact control for SMM control protein annotation, profiling panel (AID 1117)
CONDITION SET: alpha-BTX-A647 binding fluorescence, higher = more signal
composite z-score reference

Worked examples, 3 molecules total:
C=C(COC)C(=O)CC[C@@H](OC(C)=O)c1cccc(OCCO)c1; -0.485
CC1CC/C=C\[C@H]2OC34C=CCN(Cc5ccccc5)C(=O)[C@H]3N(C(CO)C(C)C)C(=O)[C@@H]4C2C(=O)O1 (some centres undefined); -0.677
CCCCN1CC=CC23O[C@@H]4/C=C\CCC(C)OC(=O)C4[C@H]2C(=O)N(CCCO)[C@@H]3C1=O (some centres undefined); -0.566

Identify measured composite z-score obtained with Alpha-bungarotoxin (Bungarus multicinctus) (UniProt P60615) for C[C@@H]1NC(=O)[C@@H](Cc2ccccc2)NC(=O)[C@@]23C(=O)N[C@@H](Cc4ccccc4)C2[C@H](C)[C@@]2(C)O[C@H]2C3/C=C/C/C=C\CNC1=O (some centres undefined) . -0.537
